Tested on: P12-Ichikawa
Assay: cell viability relative to DMSO control; higher = less cytotoxic
Settings: HPLM + 10% dialyzed FBS; 48 h; 0.0211 µM
Record form. Attribute: cell viability. Fill in for each entry.
Report the value in % with no unit label.

Sample CNC1[C@@H](O)C(O[C@@H]2C(O)C(O[C@H]3O[C@H]([C@@H](C)NC)CC[C@H]3N)[C@@H](N)C[C@H]2N)OC[C@]1(C)O (stereo partly drawn) — what was its cell viability?
99.6

// cell viability lookup, key: CCN(CC)CCCCNc1nc2cc(Cl)c(Cl)cc2nc1-c1ccc(-c2cccs2)s1
114

For the compound shown here, CC(C)Oc1cc(Nc2nc(N[C@@H](C)c3ccc(F)cn3)ncc2Cl)n[nH]1 , give the reported cell viability.
112

I am curious: what cell viability value has been reported for COc1cc2c(Nc3ccc(Cl)c(Cl)c3F)ncnc2cc1OC[C@@H]1C[C@@H]2CN(C)C[C@@H]2C1 ?
126

For the compound ClC1=CC(=CC=C1)N2CCN(CCCN3\N=C4\C=C/C=C\N4C3=O)CC2 , what cell viability is on record?
134

What value of cell viability has been reported for the following compound? COc1cc2c(Oc3ccc(NC(=O)C4(C(=O)Nc5ccc(F)cc5)CC4)cc3F)ccnc2cc1OCCCN1CCOCC1
88.8

cell viability for CC(C)C[C@H](NC(=O)[C@@H](NC(=O)c1cccc(-c2ccccc2)n1)[C@@H](C)O)B(O)O ?
112

Given the entry CCOc1ccc(Nc2nc(-c3c(C)nc4ccccn34)cs2)cc1 , report its measured cell viability.
103
